# testedSystem: T1, f-Sub M (7-methoxycoumarin-4-acetyl-SEVNLDAEFRK(Dnp)-RR-NH2)
# T1 peptide: Mca-SEVNLDAEFRK(Dnp)RR-NH2
# protocolSummary: cell-based or functional assay
Where no end group is shown, it is not given here. The star is where a group is joined. Dnp = O=[N+]([O-])c1ccc(*)c([N+](=O)[O-])c1; Mca = COc1ccc2c(CC(=O)*)cc(=O)oc2c1
testReadout: percent inhibition of f-Sub M cleavage by rhBACE1 (peptide 1 mM, f-Sub M 10 µM)

| binder | result |
| --- | --- |
| SEFCIQI-NH2 [c-Sub M ΔC3 (SEFCIQI)] | > 90% |
| SEFCI-NH2 [c-Sub M ΔC5 (SEFCI)] | > 90% |
| SEFCIQ-NH2 [c-Sub M ΔC4 (SEFCIQ)] | > 90% |
